System: Vascular endothelial growth factor receptor 2 (Homo sapiens)
Sequence (P35968 whole entry): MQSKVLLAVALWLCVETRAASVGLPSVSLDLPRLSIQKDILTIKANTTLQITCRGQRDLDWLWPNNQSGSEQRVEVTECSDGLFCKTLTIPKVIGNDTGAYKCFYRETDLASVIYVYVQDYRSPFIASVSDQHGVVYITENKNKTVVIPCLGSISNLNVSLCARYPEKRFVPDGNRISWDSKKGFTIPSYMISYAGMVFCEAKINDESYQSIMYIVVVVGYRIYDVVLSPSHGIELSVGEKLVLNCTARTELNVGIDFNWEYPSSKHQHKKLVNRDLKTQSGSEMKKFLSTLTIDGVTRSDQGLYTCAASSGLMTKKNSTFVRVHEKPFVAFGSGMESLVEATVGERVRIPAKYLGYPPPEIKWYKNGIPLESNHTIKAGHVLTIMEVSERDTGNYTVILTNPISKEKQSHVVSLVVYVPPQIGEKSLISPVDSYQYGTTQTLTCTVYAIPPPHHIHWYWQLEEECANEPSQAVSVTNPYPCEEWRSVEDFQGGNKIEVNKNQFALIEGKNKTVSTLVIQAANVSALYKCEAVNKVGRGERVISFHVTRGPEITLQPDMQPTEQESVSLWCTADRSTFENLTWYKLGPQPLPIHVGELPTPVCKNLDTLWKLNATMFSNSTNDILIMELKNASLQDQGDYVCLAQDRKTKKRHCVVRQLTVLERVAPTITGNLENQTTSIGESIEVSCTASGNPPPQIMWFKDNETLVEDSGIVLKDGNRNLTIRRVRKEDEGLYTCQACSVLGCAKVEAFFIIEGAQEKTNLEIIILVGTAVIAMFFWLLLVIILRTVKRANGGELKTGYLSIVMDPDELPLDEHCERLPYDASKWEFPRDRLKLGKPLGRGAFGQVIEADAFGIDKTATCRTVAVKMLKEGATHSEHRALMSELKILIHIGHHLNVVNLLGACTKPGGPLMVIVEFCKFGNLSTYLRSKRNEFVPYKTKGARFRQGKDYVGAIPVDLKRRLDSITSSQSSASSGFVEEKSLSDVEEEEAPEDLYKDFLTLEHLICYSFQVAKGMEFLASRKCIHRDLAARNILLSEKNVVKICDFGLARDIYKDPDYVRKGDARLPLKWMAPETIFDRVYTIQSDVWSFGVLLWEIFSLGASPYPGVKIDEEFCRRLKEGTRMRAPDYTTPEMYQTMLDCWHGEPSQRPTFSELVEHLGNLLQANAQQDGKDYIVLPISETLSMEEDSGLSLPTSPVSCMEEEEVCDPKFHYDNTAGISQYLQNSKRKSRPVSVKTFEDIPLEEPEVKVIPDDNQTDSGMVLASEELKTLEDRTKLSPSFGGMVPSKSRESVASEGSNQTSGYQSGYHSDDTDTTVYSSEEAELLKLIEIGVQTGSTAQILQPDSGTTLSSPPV
Test details: Inhibition of KDR (unknown origin)
Test conditions: read-out: IC50
pIC50: −log10 of the molar value.
Observable: pIC50

# Mol, Quantitative result
data = [
    ("c1cc(N2CCNCC2)ccc1-c1cnc2c(-c3cn[nH]c3)cnn2c1", 7.85),
]

A: COc1ccc(-c2cnc3c(-c4cn[nH]c4)cnn3c2)cc1
B: c1ccc2c(-c3cnn4cc(-c5ccc(N6CCOCC6)cc5)cnc34)ccnc2c1
Ask | Returns: the argument ( A or B ) having the larger pIC50. Lab log: write the label of the selected item as the result.
Reply | A
